Reference source: patent US20220339143A1

Assay: Single dose PK in healthy subjects (Cohorts 1, 2, S1 and S2), plasma
Type: in vivo, human
Conditions: human, plasma, intravenous, 112 mg; 4 hr; read-out: Plasma concentration, Maximum
endpoint: concentration at 4 h (ng/mL)
Note: unit ng/mL is implicit; provide only the numeric part.

Input: Endpoint output: concentration at 4 h of COC(=O)N1CCC[C@H](NS(C)(=O)=O)[C@@H]1CO[C@H]1CC[C@@H](c2ccccc2)CC1 . Value?
Output: 290

----------
Assay: Single dose PK in healthy subjects (Cohorts 1, 2, S1 and S2), plasma
Type: in vivo, human
Settings: human, plasma, intravenous, 56 mg; 6 hr; read-out: Plasma concentration, Mean
endpoint: concentration at 6 hr
The answer consists of two parts: a number and, after it, its unit.

Input: Endpoint output: concentration at 6 hr of COC(=O)N1CCC[C@H](NS(C)(=O)=O)[C@@H]1CO[C@H]1CC[C@@H](c2ccccc2)CC1 [Compound A] . Value?
Output: 91.8 ng/mL

----------
Test: Single dose PK in healthy subjects (Cohorts 1, 2, S1 and S2), plasma
Format: in vivo, human
Settings: human, plasma, intravenous, 112 mg; 3 hr; read-out: Plasma concentration, Median
Description: […]
endpoint: concentration at 3 h
The answer consists of two parts: a number and, after it, its unit.

Input: Endpoint output: concentration at 3 h of COC(=O)N1CCC[C@H](NS(C)(=O)=O)[C@@H]1CO[C@H]1CC[C@@H](c2ccccc2)CC1 [Compound A] . Value?
Output: 216 ng/mL

----------
Test: Single dose PK in healthy subjects (Cohorts 1, 2, S1 and S2), plasma
Type: in vivo, human
Settings: human, plasma, intravenous, 134.4 mg; 3 hr; read-out: Plasma concentration, Maximum
endpoint: concentration at 3 h (ng/mL)
Note: unit ng/mL is implicit; provide only the numeric part.

Input: Endpoint output: concentration at 3 h of COC(=O)N1CCC[C@H](NS(C)(=O)=O)[C@@H]1CO[C@H]1CC[C@@H](c2ccccc2)CC1 . Value?
Output: 388

----------
Experiment: Single dose PK in healthy subjects (Cohorts 1, 2, S1 and S2), plasma
Assay type: in vivo, human
Conditions: human, plasma, intravenous, 7 mg; 3 hr; read-out: Plasma concentration, Mean
endpoint: concentration at 3 h

Input: Endpoint output: concentration at 3 h of COC(=O)N1CCC[C@H](NS(C)(=O)=O)[C@@H]1CO[C@H]1CC[C@@H](c2ccccc2)CC1 [Compound A] . Value?
Output: 16.5 ng/mL

----------
Assay: Single dose PK in healthy subjects (Cohorts 1, 2, S1 and S2), plasma
Format: in vivo, human
Details: human, plasma, intravenous, 7 mg; 0.5 hr; read-out: Plasma concentration, Q3
endpoint: concentration at 0.5 h (ng/mL)
Note: unit ng/mL is implicit; provide only the numeric part.

Input: Endpoint output: concentration at 0.5 h of COC(=O)N1CCC[C@H](NS(C)(=O)=O)[C@@H]1CO[C@H]1CC[C@@H](c2ccccc2)CC1 . Value?
Output: 10.5

----------
Assay: Single dose PK in healthy subjects (Cohorts 1, 2, S1 and S2), plasma
Assay type: in vivo, human
Settings: human, plasma, iv, 7 mg, 7 mg single IV infusion, healthy subjects; read-out: Vz Median
endpoint: Vd (L)
Note: unit L is implicit; provide only the numeric part.

Input: Endpoint output: Vd of COC(=O)N1CCC[C@H](NS(C)(=O)=O)[C@@H]1CO[C@H]1CC[C@@H](c2ccccc2)CC1 [Compound A] . Value?
Output: 303
